All figures here come from ChEMBL document CHEMBL4028870.

- Test method notes: Half life in human liver microsomes at 10 uM up to 120 mins by LC-MS/MS analysis
- Format: ADME, microsome

- Compound: "CCOC(=O)[C@H](CCc1ccccc1)N[C@@H](C)C(=O)N1[C@H](C(=O)O)C[C@H]2CCCC[C@@H]21 [TRANDOLAPRIL]"
  half-life at 10 µM / min: 20

----------
- Test method notes: Half life in rat plasma at 10 uM up to 360 mins by LC-MS/MS analysis
- Assay type: ADME, cell-free
Outcome measure: half-life at 10 µM

- Molecule: "O=C(NO)[C@H](Cc1ccccc1)NCc1ccccc1"
  Measured value: "1.8 h"
- Molecule: "O=C(/C=C/c1ccc(Cl)cc1Cl)NO [CINNAMIC ACID HYDROXAMATE]"
  Measured value: "> 6 h"
- Molecule: "C[C@H](NCc1ccccc1)C(=O)NO"
  Measured value: "> 6 h"
- Molecule: "O=C(CC(=O)NCc1ccc(F)cc1)NO"
  Measured value: "> 6 h"
- Molecule: "O=C(NO)C(Cc1ccncc1)C(=O)NCc1ccccc1 (stereo not drawn)"
  Measured value: "4.5 h"
- Molecule: "O=C(CC(=O)Nc1ccccc1)NO"
  Measured value: "> 6 h"
- Molecule: "CS(=O)(=O)C(CCc1ccccc1)(Cc1ccccc1)C(=O)NO (stereo not drawn)"
  Measured value: "> 6 h"
- Molecule: "O=C(CNC(=O)c1ccccc1)NO"
  Measured value: "0.58 h"
- Molecule: "O=C(CCCCCCc1ccccc1)NO"
  Measured value: "> 6 h"
- Molecule: "CC(C(=O)NO)C(=O)NCc1ccc(F)cc1 (stereo not drawn)"
  Measured value: "> 6 h"
- Molecule: "O=C(CC1CCCCC1)NO"
  Measured value: "> 6 h"
- Molecule: "O=C(NO)C(Cc1ccccc1)C(=O)NCc1ccccc1 (stereo not drawn)"
  Measured value: "0.8 h"
- Molecule: "O=C(NO)C1CCN(C(=O)c2ccccc2)C1 (stereo not drawn)"
  Measured value: "> 6 h"

----------
- Test method notes: Half life in rat intestinal microsomes at 1 uM up to 120 mins by LC-MS/MS analysis
- Format: ADME, Intestine, Microsome
Outcome measure: half-life at 1 µM (min)

- Compound: "O=C(CCc1ccccc1)NO"
  Outcome measure: "half-life at 1 µM"
  Result unit: "min"
  Op: ">"
  Measured value: 360
- Compound: "CC(=O)Oc1cc2c(s1)CCN(C(C(=O)C1CC1)c1ccccc1F)C2 (configuration not stated)"
  Outcome measure: "half-life at 1 µM"
  Result unit: "min"
  Op: "="
  Measured value: 1

----------
Recorded half-life at 10 µM values for a group of compounds are listed next.
- Test method notes: Half life in human plasma at 10 uM up to 360 mins by LC-MS/MS analysis
- Type: ADME, cell-free

- Compound: "O=C(CC12CC3CC(CC(C3)C1)C2)NO"
  half-life at 10 µM: "> 6 h"
- Compound: "O=C(CCCCc1ccccc1)NO"
  half-life at 10 µM: "> 6 h"
- Compound: "O=C(NO)C(Cc1ccncc1)C(=O)NCc1ccccc1 (stereo not drawn)"
  half-life at 10 µM: "> 6 h"
- Compound: "O=C(NO)C(CCc1ccccc1)Cc1ccccc1 (stereo not drawn)"
  half-life at 10 µM: "> 6 h"
- Compound: "CC(CCc1ccccc1)C(=O)NO (stereo not drawn)"
  half-life at 10 µM: "> 6 h"
- Compound: "O=C(CNC(=O)c1ccccc1)NO"
  half-life at 10 µM: "> 6 h"
- Compound: "O=C(CC(=O)NCc1ccc(F)cc1)NO"
  half-life at 10 µM: "> 6 h"
- Compound: "O=C(CNCc1ccccc1)NO"
  half-life at 10 µM: "> 6 h"
- Compound: "O=C(CCCCCCc1ccccc1)NO"
  half-life at 10 µM: "> 6 h"
- Compound: "O=C(NO)C(Cc1ccccc1)C(=O)NCc1ccccc1 (stereo not drawn)"
  half-life at 10 µM: "> 6 h"
- Compound: "O=C(CCNCc1ccccc1)NO"
  half-life at 10 µM: "> 6 h"
- Compound: "O=C(/C=C/c1ccc(S(=O)(=O)Nc2ccccc2)cc1)NO"
  half-life at 10 µM: "> 6 h"
- Compound: "O=C(NO)C1Cc2ccccc2CN1S(=O)(=O)c1ccccc1 (stereo not drawn)"
  half-life at 10 µM: "> 6 h"
- Compound: "O=C(NO)C1(NS(=O)(=O)c2ccccc2)CCOCC1"
  half-life at 10 µM: "> 6 h"
- Compound: "O=C(CCCC1CCCCC1)NO"
  half-life at 10 µM: "> 6 h"
- Compound: "O=C(NO)C(CCc1ccccc1)S(=O)(=O)c1ccccc1 (stereo not drawn)"
  half-life at 10 µM: "> 6 h"
- Compound: "O=C(/C=C/c1ccc(-c2ccccc2)cc1)NO"
  half-life at 10 µM: "> 6 h"
- Compound: "O=C(NO)C1(C(=O)NCc2ccccc2)CC1"
  half-life at 10 µM: "> 6 h"
- Compound: "O=C(CNC(=O)Cc1ccccc1)NO"
  half-life at 10 µM: "> 6 h"
- Compound: "CC(C(=O)NO)C(=O)NCc1ccccc1 (stereo not drawn)"
  half-life at 10 µM: "> 6 h"
- Compound: "O=C(CC(=O)Nc1ccccc1)NO"
  half-life at 10 µM: "> 6 h"
- Compound: "CC(C)[C@H](C(=O)NO)N(Cc1ccccc1)S(=O)(=O)c1ccccc1"
  half-life at 10 µM: "> 6 h"
- Compound: "O=C(CC1CCCCC1)NO"
  half-life at 10 µM: "> 6 h"
- Compound: "CCCCc1nc2cc(/C=C/C(=O)NO)ccc2n1CCN(CC)CC"
  half-life at 10 µM: "> 6 h"
- Compound: "O=C(NCC(C(=O)NO)N1CCCCC1)c1ccccc1 (stereo not drawn)"
  half-life at 10 µM: "> 6 h"
- Compound: "CC(C(=O)NO)C(=O)NCc1ccc(F)cc1 (stereo not drawn)"
  half-life at 10 µM: "> 6 h"
- Compound: "O=C(NO)[C@H](Cc1ccccc1)NCc1ccccc1"
  half-life at 10 µM: "> 6 h"
- Compound: "CC(CCc1ccccc1)(C(=O)NO)S(=O)(=O)c1ccccc1 (stereo not drawn)"
  half-life at 10 µM: "> 6 h"
